system: Staphylococcus epidermidis; assay: ≥ marks a high value that may be exact or a test limit, other limits are often not marked, values filed in µg/mL are converted to µM
Quantity: MIC

Observe how each entry below is paired with its result.
{"columns": ["Cpd smiles", "Measured on", "Quantity", "Result"],
 "data": [
  ["CC[C@H](C)[C@H](NC(=O)[C@@H](NC(=O)[C@H](C)NC(=O)[C@H](C)NC(=O)[C@@H](NC(=O)[C@H](CCCCN)NC(=O)[C@H](CCCCN)NC(=O)[C@@H](NC(=O)[C@@H](NC(=O)[C@H](C)NC(=O)[C@H](Cc1ccccc1)NC(=O)[C@H](CC(C)C)NC(=O)[C@@H](N)CCCCN)C(C)C)[C@@H](C)CC)C(C)C)C(C)C)C(=O)N[C@@H](CCCN=C(N)N)C(=O)N[C@@H](CCCN=C(N)N)C(=O)N[C@@H](CC(C)C)C(N)=O", "Staphylococcus epidermidis", "MIC", "≥ 54.8 µM"],
  ["CC(C)C[C@H](NC(=O)[C@H](CCCN=C(N)N)NC(=O)[C@@H]1CCCN1C(=O)[C@H](Cc1cnc[nH]1)NC(=O)[C@@H]1CCCN1C(=O)[C@@H]1CCCN1C(=O)[C@@H](N)CCCN=C(N)N)C(=O)O", "Staphylococcus epidermidis", "MIC", "≥ 64 µM"]
]}

Give one value of MIC per listed molecule.
1. CC(C)C[C@H](NC(=O)[C@H](CCCCN)NC(=O)[C@H](Cc1c[nH]c2ccccc12)NC(=O)[C@H](C)N)C(=O)N[C@@H](Cc1ccccc1)C(=O)N[C@@H](CC(=O)O)C(=O)N[C@@H](CC(=O)O)C(=O)NCC(=O)N[C@H](C(=O)O)C(C)C
2. CC(C)C[C@H](NC(=O)[C@@H](NC(=O)[C@H](CCCCN)NC(=O)[C@H](CO)NC(=O)[C@H](C)NC(=O)[C@@H](NC(=O)[C@H](CCCCN)NC(=O)[C@H](Cc1ccccc1)NC(=O)[C@H](CC(C)C)NC(=O)[C@H](C)NC(=O)CN)C(C)C)C(C)C)C(=O)O

[out]
1: ≥ 60 µM; 2: ≥ 177 µM

---

System: Staphylococcus aureus ATCC 25923 | Read-out: MIC

// solved cases for MIC follow
{"columns": ["Compound", "MIC"],
 "data": [
  ["CC[C@H](C)[C@H](N)C(=O)N[C@@H](CC(N)=O)C(=O)N[C@@H](Cc1c[nH]c2ccccc12)C(=O)N[C@@H](CC(C)C)C(=O)N[C@@H](C)C(=O)N[C@H](C(=O)N[C@@H](C)C(=O)N[C@@H](C)C(=O)N[C@@H](C)C(=O)N[C@H](C(=O)N[C@@H](C)C(=O)NCC(=O)N[C@@H](CCSC)C(=O)N[C@@H](CC(C)C)C(N)=O)C(C)C)[C@@H](C)CC [INWLAIAAAVAGML]", "> 354 µM"],
  ["CC[C@H](C)[C@H](NC(=O)[C@H](CCCCN)NC(=O)[C@H](CC(C)C)NC(=O)[C@H](CCCN=C(N)N)NC(=O)[C@H](CC(C)C)NC(=O)[C@H](CCCCN)NC(=O)[C@@H](N)CCCCN)C(=O)N[C@@H](C)C(=O)N[C@@H](Cc1ccccc1)C(=O)N[C@@H](CCCCN)C(=O)O [KKLRLKIAFK]", "> 32 µM"],
  ["CC(C)C[C@H](NC(=O)[C@@H]1CCCN1C(=O)[C@H](CCCCN)NC(=O)[C@@H]1CCCN1C(=O)[C@H](Cc1ccc(O)cc1)NC(=O)[C@H](CCCCN)NC(=O)[C@H](Cc1c[nH]c2ccccc12)NC(=O)[C@@H](N)CCCN=C(N)N)C(=O)N[C@@H](CCCCN)C(=O)N[C@@H](CCCN=C(N)N)C(=O)O [RWKYPKPLKR]", "> 72.9 µM"]
]}

[in] What measured MIC is associated with CC[C@H](C)[C@H](NC(=O)CNC(=O)[C@H](CO)NC(=O)[C@H](C)NC(=O)[C@@H](NC(=O)[C@H](CCCCN)NC(=O)[C@H](CO)NC(=O)[C@H](CCSC)NC(=O)[C@H](Cc1c[nH]c2ccccc12)NC(=O)CN)[C@@H](C)CC)C(=O)NCC(=O)N[C@H](C(=O)N[C@@H](Cc1ccccc1)C(=O)N[C@@H](CC(C)C)C(=O)N[C@@H](CO)C(=O)NCC(=O)N[C@@H](CCSC)C(=O)N[C@@H](CCC(N)=O)C(=O)N[C@@H](CCC(N)=O)C(N)=O)[C@@H](C)O [GWMSKIASGIGTFLSGMQQ] on Staphylococcus aureus ATCC 25923?
[out] > 100 µM

---

As a worked illustration, we turn to MIC data collected for Escherichia coli DH5alpha.

Worked examples, 2 molecules total:
{"columns": ["Cpd smiles", "Measured on", "MIC"],
 "data": [
  ["CC[C@H](C)[C@H](NC(=O)[C@H](CCCN=C(N)N)NC(=O)[C@H](CCCCN)NC(=O)[C@H](CC(C)C)NC(=O)[C@H](CC(C)C)NC(=O)CN)C(=O)N[C@@H](CCCCN)C(=O)N[C@H](C(=O)N[C@@H](CC(C)C)C(=O)N[C@@H](CC(C)C)C(N)=O)[C@@H](C)O", "Escherichia coli DH5alpha", "≥ 260 µM"],
  ["CC[C@H](C)[C@H](NC(=O)[C@H](CCC(=O)O)NC(=O)CNC(=O)[C@@H](NC(=O)[C@H](Cc1ccccc1)NC(=O)[C@H](C)NC(=O)[C@H](CCCCN)NC(=O)CNC(=O)[C@H](Cc1ccccc1)NC(=O)[C@H](CCCCN)NC(=O)[C@H](CCCCN)NC(=O)[C@H](C)NC(=O)[C@H](CO)NC(=O)[C@H](Cc1cnc[nH]1)NC(=O)[C@H](CC(C)C)NC(=O)[C@H](Cc1ccccc1)NC(=O)[C@H](CCCCN)NC(C)=O)C(C)C)C(=O)N[C@@H](CCSC)C(=O)N[C@@H](CC(N)=O)C(=O)N[C@@H](CO)C(N)=O", "Escherichia coli DH5alpha", "≥ 200 µM"]
]}

[in] # lookup: MIC of CC[C@H](C)[C@H](NC(=O)[C@H](CCCCN)NC(=O)[C@H](CC(C)C)NC(=O)[C@H](CC(C)C)NC(=O)CN)C(=O)N[C@H](C(=O)N[C@@H](CCCCN)C(=O)N[C@@H](CCCCN)C(=O)N[C@@H](CC(C)C)C(=O)N[C@@H](CC(C)C)C(N)=O)[C@@H](C)CC
[out] ≥ 87.8 µM

---

Below are MIC values measured for Micrococcus luteus ATCC 10240.

{"columns": ["Cpd smiles", "Measured on", "MIC"],
 "data": [
  ["CC[C@H](C)[C@H](NC(=O)[C@H](Cc1ccc(O)cc1)NC(=O)[C@@H](NC(=O)[C@@H]1CCCN1C(=O)[C@H](CCCN=C(N)N)NC(=O)[C@H](CC(N)=O)NC(=O)[C@H](CC(N)=O)NC(=O)CN)C(C)C)C(=O)N[C@@H](C)C(=O)N[C@@H](CCC(N)=O)C(=O)N1CCC[C@H]1C(=O)N[C@@H](CCCN=C(N)N)C(=O)N1CCC[C@H]1C(=O)N1CCC[C@H]1C(=O)N[C@@H](Cc1cnc[nH]1)C(=O)N1CCC[C@H]1C(=O)N[C@@H](C)C(=O)N[C@@H](CC(C)C)C(N)=O", "Micrococcus luteus ATCC 10240", "≥ 62.6 µM"]
]}

Please look at the items below and tell me MIC for each one, in order.
1. CC(C)C[C@H](NC(=O)[C@H](Cc1c[nH]c2ccccc12)NC(=O)[C@H](CCCCN)NC(=O)[C@H](CCCCN)NC(=O)[C@H](CC(C)C)NC(=O)[C@H](Cc1c[nH]c2ccccc12)NC(=O)[C@@H](N)CCCCN)C(N)=O
2. CC(C)C[C@H](NC(=O)[C@H](Cc1c[nH]c2ccccc12)NC(=O)[C@H](CCCCN)NC(=O)[C@H](CCCCN)NC(=O)[C@H](CC(C)C)NC(=O)[C@H](Cc1c[nH]c2ccccc12)NC(=O)[C@H](CCCCN)NC(=O)[C@@H](N)CCCCN)C(=O)N[C@@H](CCCCN)C(N)=O

[out]
["≥ 79.9 µM", "≥ 63.6 µM"]

---

Here we list compounds with their recorded MIC when tested on Bacillus subtilis 168.
Numbers only, in µM.

A selection of reference data follows.
{"columns": ["Compound", "MIC (µM)"],
 "data": [
  ["CC[C@H](C)[C@H](NC(=O)CN)C(=O)N[C@@H](CC(C)C)C(=O)N[C@@H](CO)C(=O)N[C@@H](CO)C(=O)N[C@@H](CC(C)C)C(=O)N[C@@H](CC(C)C)C(=O)N[C@@H](CCCCN)C(=O)N[C@@H](CCCCN)C(=O)N[C@@H](Cc1c[nH]c2ccccc12)C(=O)N[C@@H](CCCCN)C(=O)N[C@@H](CCCCN)C(=O)N[C@H](C(=O)N[C@H](C(=O)N[C@@H](C)C(=O)N[C@@H](CCCCN)C(N)=O)[C@@H](C)CC)[C@@H](C)CC [GILSSLLKKWKKIIAK]", 7],
  ["CC[C@H](C)[C@H](NC(=O)[C@H](CCCCN)NC(=O)[C@H](CCCCN)NC(=O)[C@H](Cc1c[nH]c2ccccc12)NC(=O)[C@H](CC(N)=O)NC(=O)[C@@H](N)C(C)C)C(=O)N[C@@H](CC(C)C)C(=O)NCC(=O)N[C@@H](CCCCN)C(=O)N[C@H](C(=O)N[C@H](C(=O)N[C@@H](CCCCN)C(=O)N[C@H](C(=O)N[C@@H](C)C(=O)N[C@@H](CCCCN)C(N)=O)C(C)C)[C@@H](C)CC)[C@@H](C)CC [VNWKKILGKIIKVAK]", 0.7],
  ["CC[C@H](C)[C@H](NC(=O)[C@H](Cc1cnc[nH]1)NC(=O)[C@H](CCCCN)NC(=O)[C@H](CC(C)C)NC(=O)[C@H](CC(C)C)NC(=O)[C@@H](NC(=O)[C@H](CCSC)NC(=O)[C@H](Cc1c[nH]c2ccccc12)NC(=O)[C@H](CCCCN)NC(=O)CN)[C@@H](C)O)C(=O)N[C@@H](CC(C)C)C(=O)N[C@@H](CCCCN)C(N)=O [GKWMTLLKHILK]", 1.3]
]}

[in] So what's the measured MIC for this one? CC[C@H](C)[C@H](NC(=O)[C@H](CCCCN)NC(=O)CNC(=O)[C@H](CC(C)C)NC(=O)[C@@H](NC(=O)[C@H](CCCCN)NC(=O)[C@H](CCCCN)NC(=O)[C@H](Cc1c[nH]c2ccccc12)NC(=O)[C@H](CC(N)=O)NC(=O)[C@@H](N)C(C)C)[C@@H](C)CC)C(N)=O [VNWKKILGKI]
[out] 4.7
